Where do these numbers come from? They come from patent US6709814B1.

- targetOrSystem: the molecule itself
- assayProtocol: self-dimerization, electrospray mass spectrometry, relative dimer ion current against peptide concentration, pH 5.0
Ends that are not written are not given here.
recordedEndpoint: Kd (µM)
Response body: numeric value in µM, unit text excluded.

>>> resultnumber("AFLIVKS (Alanine scan analog of EFLIVKS (E1A))")
12
>>> resultnumber("SKVILFE-NH2 (also called SKVILFE-amide; test peptide SKVILFE)")
12

Turning now to a further protein:
query: Identify Kd associated with the protein VSIKFEL (Peptide designed to form a short beta sheet)
result: 13
